# Test system: SW-620 colon
# experiment-notes: NCI tumour cell line growth inhibition, 48 h
Assign TGI to each entry below.

Data request: # return TGI of `CC(=O)N1[C@H](C(=O)O)CS[C@H]1c1ccncc1` (system: SW-620 colon)
Data returned: > 100 µM

Data request: State, for SW-620 colon, measured TGI of the compound listed here: `COc1ccc(NC(=O)c2cc(OC)cc(OC)c2)cc1`
Data returned: > 100 µM

Data request: Find TGI for `C/C(CCn1[nH]c(=O)ccc1=O)=N\O` on SW-620 colon and write it down.
Data returned: > 100 µM

Data request: Give TGI for this entry on SW-620 colon: `COc1ccc(-n2/c(=N/C(=S)N(C)C)ss/c2=N\C(=S)N(C)C)cc1`
Data returned: > 100 µM

Data request: Retrieve TGI on SW-620 colon; query `COc1cc2c(cc1OC)[C@@H]1[C@H](C#N)C(=O)C(C)(C)N1CC2`
Data returned: > 100 µM

Data request: # return TGI of `O=C(/C=C/c1ccccc1Cl)c1ccc(Cl)c(Cl)c1` (system: SW-620 colon)
Data returned: 28.3 µM

Data request: Write down the reported TGI (system: SW-620 colon) of `CO[C@]1(c2ccc([N+](=O)[O-])cc2)Oc2ccccc2C(=O)[C@@]1(Nc1ccc(C=O)cc1)OC`
Data returned: > 10 µM

Data request: Give measured TGI for `O=C(CSC(=S)N1CCCCC1)Nc1nc2c(s1)CCCC2` (SW-620 colon).
Data returned: > 100 µM

Data request: State the measured TGI (SW-620 colon) of COC1(c2ccc(Cl)cc2)SC=C(C)n2c1noc2=O (stereo not given)
Data returned: > 100 µM

Data request: # return TGI of `COc1c2ccoc2c(/C=C/C=O)c2oc(-c3ccccc3)cc(=O)c12` (system: SW-620 colon)
Data returned: 5.21 µM

Data request: Lab note: SW-620 colon assay, enter TGI for `COc1ccc2nc3cc(Cl)ccc3c(Sc3ccccc3[N+](=O)[O-])c2c1` here
Data returned: > 100 µM

Data request: Retrieve TGI on SW-620 colon; query O=C1NC2(CCCCC2)C2CCCCC(O)C12 (stereo not given)
Data returned: > 100 µM

Data request: Please report the measured TGI for COc1cc2c(c(OC)c1O)C(=O)C(OC)C(c1ccc(O)c(O)c1)O2 (stereo not given) tested on SW-620 colon.
Data returned: > 100 µM

Data request: Specify TGI for `O=[N+]([O-])C(=C(Cl)Cl)C(Cl)=C(Cl)Cl` , system SW-620 colon.
Data returned: 0.157 µM

Data request: Please look at NC1CCC(Nc2nc(NCc3ccc(-c4ccco4)nc3)c3ncn(C4CCCC4)c3n2)CC1 (stereo not given) and tell me its recorded TGI on SW-620 colon.
Data returned: 11.5 µM

Data request: Report value: TGI, system: SW-620 colon, compound: `CC(C)(C)c1cc(C(=O)/C=C/c2c(Cl)cccc2Cl)cc(C(C)(C)C)c1O`
Data returned: 36.2 µM

Data request: Look up and report measured TGI (SW-620 colon) for the following compound: `COc1ccc(-c2cc(=O)c3ccc(O)cc3o2)c(OC)c1OC`
Data returned: > 100 µM

Data request: Report value: TGI, system: SW-620 colon, compound: `Cc1ccc(-c2n[nH]c(Cc3nc(-c4ccc(C)cc4)n[nH]3)n2)cc1`
Data returned: > 100 µM

Data request: Report TGI from SW-620 colon testing of `CN(C)c1ccc(-c2cc(-c3ccc(Nc4nc(Nc5ccc(Cl)cc5)nc(Nc5ccc(Cl)cc5)n4)cc3)no2)cc1`
Data returned: > 100 µM

Data request: Quote SW-620 colon TGI for entry `O=[N+]([O-])c1cnc(Sc2ccncn2)s1` .
Data returned: 3.29 µM

Data request: Output reported TGI of the compound `Oc1ccc(Cl)cc1-c1cc(-c2ccccc2Cl)[nH]n1` on SW-620 colon.
Data returned: > 100 µM

Data request: Give measured TGI for CC1OC(OC2C(O[C@H]3CC[C@@H]4C(=CC[C@@H]5[C@@]4(C)C(=O)C[C@]4(C)[C@@H]([C@H](C)CC[C@@H](O)C(C)(C)O)CC[C@@]54C)C3(C)C)OC(CO)C(O)C2O)C(O)C(O)C1O (stereo not given in full) (SW-620 colon).
Data returned: > 100 µM

Data request: Enter TGI (test system SW-620 colon) for `COc1cc2nc(-c3ccc(C(F)(F)F)cc3)cc(OCCCN3CCC(O)CC3)c2cc1OC`
Data returned: 14.8 µM

Data request: Provide TGI, system SW-620 colon, entry CC1=C(C(=O)OCCO[N+](=O)[O-])C(c2cccc([N+](=O)[O-])c2)C(C(=O)OC(C)C)=C(C)N1 (stereo not given)
Data returned: 51.1 µM

Data request: State recorded TGI with SW-620 colon, entry NC(CCc1nc(-c2ccc(Cl)cc2)cs1)C(=O)O (stereo not given) , no comment.
Data returned: > 100 µM

Data request: Name the recorded TGI of `Cc1cccc2oc3c(CC(=O)O)cccc3c(=O)c12` , assay system SW-620 colon.
Data returned: > 100 µM

Data request: Give measured TGI for `O=[S@@]1Nc2ccc(Br)cc2S1` (SW-620 colon).
Data returned: > 100 µM

Data request: State TGI (SW-620 colon) of CC(=O)Oc1c(C)c2c(c3ncccc13)OC(C)C2 (stereo not given) .
Data returned: 27.2 µM

Data request: Enter recorded TGI with SW-620 colon for NS(=O)(=O)c1ccccc1C(=O)N/N=C(\c1nc2ccc([N+](=O)[O-])cc2[nH]c1=O)C(O)c1ccc([N+](=O)[O-])cc1 (stereo not given) here.
Data returned: > 100 µM

Data request: Print SW-620 colon TGI for `O=C(O)CCSC(=O)Nc1cccc(F)c1` .
Data returned: > 100 µM

Data request: Report the value of TGI obtained on SW-620 colon for CCCCCCNC(=O)C(C)C1CCC2(C)C=CC(=O)C(C)=C2C1O (stereo not given) .
Data returned: > 100 µM

Data request: Retrieve TGI on SW-620 colon; query CCOC(=O)C(Sc1ccccc1)c1c(OC)cc(=O)oc1/C=[N+](/[O-])c1ccc(N(C)C)cc1 (stereo not given)
Data returned: 32.2 µM

Data request: Report its TGI with SW-620 colon as the test system: O=C(O)C(Cc1ccccc1)N1C(=O)N/C(=C\c2ccc(F)cc2)C1=O (stereo not given)
Data returned: > 100 µM

Data request: With SW-620 colon as the test system, provide measured TGI for this compound: `Cc1ccc(Cc2n[nH]c(=O)[nH]2)cc1`
Data returned: > 100 µM

Data request: Fill in: TGI on SW-620 colon, entry Cc1cc(=O)[nH]c(NNC(C#N)c2cccc(O)c2)n1 (stereo not given)
Data returned: > 100 µM

Data request: For SW-620 colon, give the measured TGI of the entry `N=C(N)c1ccc(/C=C/c2ccc(C(=N)N)cc2)cc1`
Data returned: > 100 µM

Data request: State the measured TGI (SW-620 colon) of `CS(=O)(=O)OCCCCOS(=O)(=O)CF`
Data returned: > 100 µM

Data request: For SW-620 colon, give the measured TGI of the entry `CC(=O)[O][Hg][c]1c(N)c(C)cc(C)c1F`
Data returned: 3.21 µM

Data request: For SW-620 colon, give the measured TGI of the entry O=C(Nc1ccccc1)OCCN=C1c2ccccc2C(Br)C(Br)c2ccccc21 (stereo not given)
Data returned: 16.3 µM

Data request: Check SW-620 colon data and give TGI for `C1=CC2(C=CC13O[C@H](C1CCCCC1)[C@@H](C1CCCCC1)O3)O[C@H](C1CCCCC1)[C@@H](C1CCCCC1)O2` .
Data returned: > 50 µM

Data request: Check SW-620 colon data and give TGI for C/C=C/C(C#N)(/C=C/c1ccccc1)OP1(=O)OC(c2ccccc2)C(C)N1C (stereo not given) .
Data returned: 39.2 µM

Data request: Find the measured TGI of `S=C(N1CCN(c2ccc(Cl)c(Cl)c2)CC1)N1CCN(c2ccc(Cl)c(Cl)c2)CC1` with SW-620 colon as test system.
Data returned: 33.8 µM

Data request: // output TGI; input FC(F)(F)c1ccc(C2SCc3nc4ccccc4n32)cc1 (stereo not given) ; system SW-620 colon
Data returned: > 100 µM

Data request: Supply TGI measured with SW-620 colon for NC(CSC(c1ccccc1)(c1ccccc1)c1ccc2c(c1)OCO2)C(=O)O (stereo not given) .
Data returned: > 100 µM

Data request: Report the value of TGI obtained on SW-620 colon for `O[C@H]1[C@H]2c3cc4c(cc3CN3CCC(=C[C@@H]1O)[C@H]23)OCO4` .
Data returned: > 36.9 µM

Origin of the recorded values: PubChem BioAssay (NCI)
